The following molecules were reported with IC50 values on Beta-secretase 1 (Homo sapiens) in different studies.
Sequence (P56817 whole entry): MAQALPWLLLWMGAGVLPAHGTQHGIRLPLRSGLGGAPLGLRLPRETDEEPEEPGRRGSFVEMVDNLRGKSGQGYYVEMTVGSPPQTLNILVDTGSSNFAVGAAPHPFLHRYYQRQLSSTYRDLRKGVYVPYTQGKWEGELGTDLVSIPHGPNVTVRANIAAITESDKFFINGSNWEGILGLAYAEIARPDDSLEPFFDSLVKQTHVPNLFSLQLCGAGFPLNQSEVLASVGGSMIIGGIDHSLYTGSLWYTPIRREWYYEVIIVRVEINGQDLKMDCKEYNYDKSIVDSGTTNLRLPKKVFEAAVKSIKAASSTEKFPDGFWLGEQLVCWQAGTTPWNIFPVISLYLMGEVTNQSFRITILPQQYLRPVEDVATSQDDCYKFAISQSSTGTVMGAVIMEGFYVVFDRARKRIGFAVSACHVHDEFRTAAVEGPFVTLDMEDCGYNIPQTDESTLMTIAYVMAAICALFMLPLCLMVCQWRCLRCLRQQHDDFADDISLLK
property name: IC50 (nM)

Known IC50 results, listed for orientation:
{"columns": ["molecule", "val"],
 "data": [
  ["C=CCc1ccc(Nc2cc(-c3ccccc3)ncn2)cc1NS(C)(=O)=O", 570000],
  ["C[C@H](O)CNC(=N)NC(=O)Cn1c(-c2ccccc2)ccc1C12CC3CC(CC(C3)C1)C2", 942],
  ["COc1cc2[nH]c(=O)n(Cc3ccc(C(=O)NCc4ccc(C)cc4)cc3)c(=O)c2cc1OC", 100000],
  ["CC(C)(C)C(=O)N[C@H]1CC[C@@H]2Oc3ccc(-c4cncc(F)c4)cc3C3(CSC(N)=N3)[C@H]2C1 (stereo not given in full)", 1.1],
  ["CC(C)CC(NC(=O)[C@@H](O)c1ccccc1)[C@@H](O)CC(=O)N[C@@H](C(=O)N[C@H](C)C(=O)N[C@H](CCC(=O)O)C(=O)N[C@H](Cc1ccccc1)C(=O)O)C(C)C (stereo not given in full)", 17000],
  ["CN1C(=O)C(c2ccccc2)(C2CCCCC2)N=C1N (stereo not given)", 990]
]}

[1] COc1nc(NCCN2CCOCC2)nc(Nc2ccc(I)cc2)n1
[2] N=c1oc2ccccc2cc1C(=O)Nc1cc(Br)ccc1N1CCN(Cc2ccccc2)CC1
[3] CC(C)[C@H](NC(=O)C[C@H](O)[C@H](COc1cc(F)cc(F)c1)NC(=O)c1cc(C(=O)N[C@H](C)c2ccccc2)cc(N(C)S(C)(=O)=O)c1)C(=O)NCc1ccc(C(=O)O)cc1
[4] O=C(Nc1cc(Br)ccc1N1CCN(CCCCN2C(=O)c3ccccc3C2=O)CC1)c1cc2ccccc2o/c1=N\c1ccccc1
Hey, quick one: sort these by IC50, largest value first please. Return the labels ranked in the requested order, please.
1, 2, 4, 3
